# Test system: BT-549 breast
# assay-summary: NCI tumour cell line growth inhibition, 48 h
observation-type: GI50

{"compound": "O=C(Cc1csc2nc(-c3ccc(Br)cc3)cn12)N/N=C/c1ccccc1O", "meas-value": "10.1 µM"}
{"compound": "Cc1nc2sc(C(=O)Nc3cccc(Cl)c3)c(N)c2cc1C(O)c1ccccc1 (configuration not stated)", "meas-value": "6.13 µM"}
{"compound": "COc1ccc(C2=NOC3=c4ccccc4=CSC3=C2c2ccccc2)cc1", "meas-value": "24 µM"}
{"compound": "COc1ccc([C@H]2c3[nH]c4ccccc4c3C[C@H]3C(=O)N(CCCCCCC(=O)NO)CC(=O)N23)cc1", "meas-value": "10.9 µM"}
{"compound": "COc1ccc(C2CC(c3cccc(Nc4ccncc4)c3)=NN2c2ccccc2)cc1 (configuration not stated)", "meas-value": "4.94 µM"}

Look at this compound and give its reported GI50. `COc1ccc(-c2nc3sccn3c2/C=C/C(=O)c2cc(OC)c(OC)c(OC)c2)cc1` 2.56 µM

Subsequent entry: `COc1cc(C(=O)Nc2ccc(-c3nc4ccccc4[nH]3)cc2)cc(OC)c1OC` 12.7 µM

Subsequent entry: CN(Cc1cnc2nc(N)nc(N)c2n1)c1c(Cl)cc(C(=O)NC(CCC(=O)O)C(=O)O)cc1Br (configuration not stated) < 0.0122 µM

Subsequent entry: `OCCN1CCCN(CCCN2c3ccccc3Sc3ccc(C(F)(F)F)cc32)CC1` 5.93 µM

Subsequent entry: `CNc1ccc(CSc2ccc(C)cc2)cc1` 3.08 µM

Subsequent entry: `COC(=O)c1sc(=S)c2sc(C(=O)OC)c(C(=O)OC)c2c1C(=O)OC` 46.8 µM

Subsequent entry: `Oc1ccccc1/C=N/c1nc(-c2ccccc2)cs1` 59.5 µM

---

TGI values for the molecules below.
# Test system: CCRF-CEM leukemia
# assay-summary: NCI tumour cell line growth inhibition, 48 h
Numbers only; they are read as µM.

{"molecule": "Cc1cc(Br)c(O)c(-c2cscn2)c1", "target-entity": "CCRF-CEM leukemia", "result-units": "µM", "TGI": 28.6}
{"molecule": "CC(C)NC(=O)OCCN=C1c2ccccc2C(Br)C(Br)c2ccccc21 (stereo not given)", "target-entity": "CCRF-CEM leukemia", "result-units": "µM", "TGI": 1.69}
{"molecule": "O=c1c2ccccc2n2nnc3ccc(NCCNCCO)c1c32", "target-entity": "CCRF-CEM leukemia", "result-units": "µM", "TGI": 14.9}
{"molecule": "CC(CSc1nc2c(c(=N)n1-c1ccccc1)c(=S)n(-c1ccccc1)c(=S)n2-c1ccccc1)CN(C)C (stereo not given)", "target-entity": "CCRF-CEM leukemia", "result-units": "µM", "TGI": 1.49}
{"molecule": "CC1CC(C)(C)CC(OCCN2CCCCC2)(c2ccccc2)C1 (stereo not given)", "target-entity": "CCRF-CEM leukemia", "result-units": "µM", "TGI": 24.9}

Look at this molecule and give its reported TGI. O=C(Nc1nnc(-c2ccccc2)o1)C(SC(=S)N1CCCC1)c1ccccc1 (stereo not given) 71.4

Subsequent entry: `N=C(N)c1ccc(N=Nc2c(O)c(C(=O)Nc3ccccc3)cc3ccccc23)cc1` 5.92

Subsequent entry: COc1ccc(C2CC(c3cccc(Nc4ccncc4)c3)=NN2c2ccccc2)cc1 (stereo not given) 11.6

Subsequent entry: `COC1=C(OC)C(=O)C(Cc2c(-c3ccccc3)nc3sc(Cl)cn23)=C(C)C1=O` 53
